The measurements presented in this section are drawn from patent US20260176289A1.

Collected IC50 values appear next to each entry.
target: KRAS-G12V (Homo sapiens, UniProt P01116, G12V); assay: SOS-catalyzed nucleotide exchange assay (Procedure A, TR-FRET), KRAS-G12V; type: biochemical; conditions: nucleotide exchange, read-out: KRAS G12V GNE IC50
Sequence (P01116 with tags, fused parts or gaps isoform P01116-2 G12V): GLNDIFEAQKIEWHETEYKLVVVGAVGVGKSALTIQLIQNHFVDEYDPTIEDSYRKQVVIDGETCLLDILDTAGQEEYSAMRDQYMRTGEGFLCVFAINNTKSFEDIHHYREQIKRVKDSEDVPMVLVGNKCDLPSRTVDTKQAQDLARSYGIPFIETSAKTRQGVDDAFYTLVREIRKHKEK
value.kind: IC50 (nM)

[
  {
    "compound": "Cc1cc2[nH]ncc2c(-c2nccc3c2sc2nc(OC[C@@]45CCCN4C[C@H](F)C5)nc(NC4CNC(=O)C4)c23)c1C(F)(F)F (stereo partly drawn) [Ex-192]",
    "target.entity": "KRAS-G12V (Homo sapiens, UniProt P01116, G12V)",
    "value": 192
  },
  {
    "compound": "CC[C@@H]1CCCc2cc3[nH]ncc3c(-c3nccc4c3sc3nc(OC[C@@]56CCCN5C[C@H](F)C6)nc(N5CCOC[C@@](C)(O)C5)c34)c21 [Ex-176]",
    "target.entity": "KRAS-G12V (Homo sapiens, UniProt P01116, G12V)",
    "value": 11.6
  },
  {
    "compound": "Cc1cc2[nH]ncc2c(-c2nccc3c2sc2nc(OC[C@@]45CCCN4C[C@H](F)C5)nc(NC4COC4)c23)c1C(F)(F)F [Ex-184]",
    "target.entity": "KRAS-G12V (Homo sapiens, UniProt P01116, G12V)",
    "value": 194
  },
  {
    "compound": "C[C@@]1(O)COCCN(c2nc(OC[C@@]34CCCN3C/C(=C\\F)C4)nc3sc4c(-c5c(C6(F)CC6)c(Cl)cc6[nH]ncc56)nccc4c23)C1 [Ex-267]",
    "target.entity": "KRAS-G12V (Homo sapiens, UniProt P01116, G12V)",
    "value": 8.11
  },
  {
    "compound": "C[C@@H]1CC[C@@H](COc2nc(N3CCOC[C@@](C)(O)C3)c3c(n2)sc2c(-c4c(C5CC5)c(C(F)(F)F)cc5[nH]ncc45)nccc23)N1C [Ex-86]",
    "target.entity": "KRAS-G12V (Homo sapiens, UniProt P01116, G12V)",
    "value": 21.2
  },
  {
    "compound": "C[C@@]1(O)COCCN(c2nc(OC[C@@]34CCCN3C[C@H](F)C4)nc3sc4c(-c5c6c(cc7[nH]ncc57)CC5CC65)nccc4c23)C1 (stereo partly drawn) [Ex-90]",
    "target.entity": "KRAS-G12V (Homo sapiens, UniProt P01116, G12V)",
    "value": 85
  }
]
